Cited source for all entries: PubChem BioAssay (NCI)

Test: NCI Yeast Anticancer Drug Screen. Data for the bub3 strain (AID 167)
Settings: S. cerevisiae bub3 mutant strain, at 50.0 µM (retest, dose inferred, filed as 5.0)
The panel holds about 79,000 compounds, 15% with a hit somewhere; the sample as a whole holds those more often. The source made the active and inactive calls. Cut-off read from the data, not from the text of the source: active = growth inhibition above about 70%; inactive = the rest.
I would appreciate it if you answered using one of these outcomes: TRUE = active, FALSE = inactive

What call does the record list for "O=C(c1cc(=O)c2ccc(O)cc2o1)c1ccc(Cl)cc1Cl" ?
TRUE

What did the test return for CC1C(c2ccccc2)SC(=N)N1C (stereo not given) ?
FALSE

Recorded test outcome, item O=NC1c2cccc3cccc(c23)C1N=O (stereo not given)
TRUE

Look up the recorded call for "Cc1ccc(C)c(C(=N)c2ccccc2Cc2ccccc2)c1" in this test.
TRUE

What is the recorded call for this molecule in the test? "Cc1ccc(Nc2n[nH]c(=S)s2)c(C)c1"
TRUE

Per the records of this test, what outcome belongs to "C/C(=N\Sc1ccccc1)c1ccccc1O" ?
FALSE

Dear all, I need the recorded test outcome for "CC1=COC2=C(C)C(=O)C(=O)c3c(C)ccc1c32" , thank you.
TRUE

Test call for this molecule, please: "Cc1cc(OCc2nc(N)nc(N)c2-c2ccc(Cl)c(Cl)c2)ccc1[N+](=O)[O-]"
FALSE

Called result for "Cc1cccc2c(NCCCN(C)C)c3c([N+](=O)[O-])ccc(C)c3nc12"
TRUE

Write down the call the test reported for this molecule. Item: "O=C(O)/C=C\C(=O)Nc1ccc2c(c1)Cc1cc(Cl)ccc1-2"
FALSE

Field: outcome | Entry: "O=C(NC(N1CCN(c2cc3c(cc2F)c(=O)c(C(=O)O)cn3C2CC2)CC1)(C(F)(F)F)C(F)(F)F)c1ccccc1"
FALSE

Name the outcome recorded for CC(/C=C/c1ccc([N+](=O)[O-])o1)=N/N1CC(CN2CCOCC2)OC1=O (stereo not given) in the assay.
TRUE

Hello, I am checking results. What call was entered for "CCN(CC)CCC(=O)Nc1ccc2sc3ccccc3c(=O)c2n1" ?
FALSE

Per the assay record, what outcome was assigned to O=C1CSC(c2ccccc2)N1c1ccc(-c2ccc(-n3c(-c4ccccc4)nc4ccccc4c3=O)cc2)cc1 (stereo not given) ?
TRUE

Could you please tell me the result logged for C/C(=N\OCC(O)CNCCSCc1ccccc1)c1ccccc1Cl (stereo not given) in this assay?
TRUE

---

Assay: NCI Yeast Anticancer Drug Screen. Data for the sgs1 strain (AID 173);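 note: 0% = growth of vehicle-only control cultures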
Conditions: S. cerevisiae sgs1 mutant, at 33.0 µM, active compounds read high
This is part of a sample that, as a whole, favours compounds with a hit. Of some 79,000 tested, about 15% had one in any assay.
Answer each item with its documented growth inhibition.
Provide only the numeric value, understood in %.

Suppose we examine the molecule "O=C(O)c1ccc2cc(Cl)c3ccccc3c2c1" ; what growth inhibition value has been reported?
53

What value of measured growth inhibition is listed for "S=C1C(=Nc2ccccc2)N(c2ccccc2)/C(=N\c2ccccn2)N1c1ccccc1" ?
99

Need growth inhibition of CC1=CN2C(c3ccccc3)=NON(c3ccc(C)cn3)C2C=C1 (stereo not given) , thanks.
-7

Sample CC1=NN(C(=O)CC(=O)NC(=O)/C=C\c2ccccc2)C(=O)C1N=Nc1ccc([N+](=O)[O-])cc1 (stereo not given) — what was its growth inhibition?
77

Quick check: growth inhibition of "CCCCCCCCCC(=O)N(CCC)CCC" ?
73

What value of growth inhibition has been reported for the following molecule? "C=COC(=O)N[C@H]1CCc2cc(OC)c(OC)c(OC)c2-c2ccc(SC)c(=O)cc21"
14

Looking for the measured growth inhibition of "O=S1(=O)CCC2=CC(C(F)(F)F)=CC(C(F)(F)F)=CN21" , can you help?
94

Request the reported growth inhibition associated with CC1C(c2ccccc2)SC(=N)N1C (stereo not given)
1

If you can, please state the reported growth inhibition value of CCCCCCC1OCC(O)C(OCCCC)O1 (stereo not given) .
0

Form field: reported growth inhibition of "CCCCCCCN(CCCCCCC)CC(=O)c1ccc2cc(Cl)c3ccccc3c2c1"
97

I would be grateful if you could share the reported growth inhibition for "Oc1ccc(N=Nc2ccc(Cl)cc2)cc1" .
99

Which growth inhibition value is on record for "COC(=O)C(=O)CC(=O)c1cccc(OC)c1" ?
49

For the molecule shown here, O=C1c2ccccc2N2OC3(N4CCCC4)CCCCC3C12c1ccccc1 (stereo not given) , give the reported growth inhibition.
61

Sample "O=C1c2ccccc2-c2ccc(N=Cc3ccccc3)cc21" — what was its growth inhibition?
19

Please look up its growth inhibition: "OC(c1ccccc1)(c1ccccc1)c1nccc2ccccc12"
16

Which value of growth inhibition has been reported for "C[N+](C)([O-])CCCNc1c2ccccc2nc2cccc([N+](=O)[O-])c12" in the records?
94

May I ask what growth inhibition has been recorded for CCC(=O)C1=C(O)c2cc(OC)ccc2CC1C(=O)OC (stereo not given) ?
18

Query (molecule): "Nc1ccc(/C=C/c2ccc3cccnc3c2)cc1" ; field requested: growth inhibition
20

Name the reported growth inhibition value associated with the molecule "O=C1c2cccc3cccc(c23)C(=O)N1O"
67

Param item = NC(CCCCCCCCCCCCC(N)C(=O)c1ccccc1)C(=O)c1ccccc1 (stereo not given) ; retrieve measured growth inhibition.
96

// growth inhibition lookup, key: "COc1ccc(C(=O)/C=C\c2ccc(Cl)c(Cl)c2)cc1"
44

Fill in the blank: the reported growth inhibition of CCC(C)COC(=O)Nc1cccc(Cl)c1 (stereo not given) is ____.
87

I am curious: what growth inhibition value has been reported for "CC(C)(CN1CCCCC1)C(=O)/C=C/c1c(Cl)cccc1Cl" ?
98

Value lookup for growth inhibition; key = "COC(=O)C(=O)c1c(-c2ccc(Cl)c(Cl)c2)[nH]c2[nH]n(-c3ccccc3)c(=O)c2c1=O"
61

# query: growth inhibition of entry "CCCCCCCCCCCCCCCCCCNC(=S)/N=C/c1c(O)c2ccccc2[nH]c1=O"
11

For the molecule shown here, "COc1cc(C(=O)C=O)cc(OC)c1OC" , give the reported growth inhibition.
31

Which measured growth inhibition value corresponds to "Cc1cccc(/C=N/NC(=S)NC2CCCCC2)n1" ?
40

What measured growth inhibition goes with "CC(C)OC(=O)NNc1cccc(Cl)c1" ?
98

State the recorded growth inhibition for this entry: "CCCCCc1c(CCCC)c(=O)[nH]c2cc(CNCC(OC)OC)ccc12"
99

What measured growth inhibition goes with "CC(C)N(CCCNc1c2ccccc2nc2cccc([N+](=O)[O-])c12)C(C)C" ?
97

Can you look up the measured growth inhibition of CCCCCCCCN1COCC(COc2ccccc2C)OC1 (stereo not given) for me?
22

If you can, please state the reported growth inhibition value of "OC1(C#CI)CCCCC1" .
99

Field request: growth inhibition | item: "CC(=O)N1C=Cc2c(c(C)c3c([nH]c4ccccc43)c2C)C1"
95

// query growth inhibition value for entry COC(=O)C1CCCCC1C(=O)Nc1ccccc1 (stereo not given)
0

What growth inhibition value was documented for this molecule, "O=C(Nc1cccs1)c1ccccc1" ?
3

Look at this molecule and give its reported growth inhibition. "CCCCCCCC/C=C\CCCCCCCCN"
97

What does the data say about its growth inhibition? Entry: "O=C(Cc1ccccc1)NNc1nc(NNC(=O)c2ccncc2)nc(Nc2ccc(Cl)cc2)n1"
6

Data request, read-out growth inhibition, for "CC(C)CCC[C@@H](C)[C@H]1CC[C@H]2[C@@H]3CC[C@H]4C[C@H](N)CC[C@]4(C)[C@H]3CC[C@]12C"
6

Can you share its growth inhibition? I mean this molecule: "O=C1c2cccc3cccc(c23)C(=O)N1CCNCCN1C(=O)c2cccc3cccc(c23)C1=O"
-1

Please look up its growth inhibition: CC(C)C(=O)CC(Sc1ccc(N)cc1)c1ccccc1 (stereo not given)
62
